// read-out IC50, gathered for UniProtKB Q9Y5Y4 from published studies
Give bare numbers, in nM.

// below: answered compounds
• CCOc1cc(CC(=O)O)ccc1-c1ccc(F)c2c1CN(C(=O)CC1CC(C)(C)Oc3ccccc31)CC2 (racemic) = 1.8
• CCCCC(=O)N(Cc1ccc2ccccc2c1)c1cccc(-c2nnn[nH]2)c1 = 49
• COc1ccc(CC(=O)O)cc1-c1ccc(F)c2c1CN(C(=O)CC(C)(O)c1ccccc1)CC2 (racemic) = 49.8

Give one value of IC50 per listed compound.
1. O=C(O)COc1ccc(Cl)cc1[C@@H]1c2scnc2CCN1C(=O)[C@H]1C[C@@H]1c1ccc(F)cc1
2. COc1ccc(CC(=O)O)cc1-c1ccc(Cl)c2c1CN(C(=O)CCN1CCCc3ccccc31)CC2

Reply:
1. 462
2. 24

* * *

pIC50: −log10 of the molar value.
// merged dataset of pIC50 values, system = UniProtKB Q9Y5Y4, multiple refs
Values of pIC50 greater than or equal to 8 map to Y; values below map to N.

Below are worked cases with known answers.
- Cc1nc2c(s1)[C@H](c1cc(Cl)ccc1OCC(=O)O)N(C(=O)OCc1ccccc1)CC2: N
- O=C(O)COc1ccc(Cl)cc1[C@@H]1c2scnc2CCN1C(=O)OCC1CCC1: Y
- COc1ccc(CC(=O)O)cc1-c1cccc2c1CN(C(=O)OCc1ccccc1)CC2: N
- CCOc1cc(CC(=O)O)ccc1-c1ccc(F)c2c1CN(C(=O)/C=C/c1ccccn1)CC2: Y
- CCCCC(=O)N(Cc1ccc(O)cc1)c1cccc(-c2nnn[nH]2)c1: N

Ask: pIC50 >= 8 for "COc1ccc(CC(=O)O)cc1-c1ccc(F)c2c1CN(C(=O)OCC(C)C)CC2" ?
Reply: N

Ask: Could you please find out whether CC(C)Oc1ccc(CC(=O)O)cc1-c1ccc(F)c2c1CN(C(=O)CC1OCCc3ccccc31)CC2 (racemic) has pIC50 that meets 8 or exceeds it?
Reply: Y

Ask: Could you verify whether the entry "COc1ccc(CC(=O)O)cc1-c1ccc(F)c2c1CN(C(=O)OCc1cncnc1)CC2" shows pIC50 of no less than 8?
Reply: N

Ask: I'd appreciate it if you could say whether "CS(=O)(=O)c1ccc(CN(C(=O)Cc2ccccc2)c2cc(F)cc(-c3nnn[nH]3)c2)cc1" has pIC50 at least equal to 8.
Reply: Y

Ask: Please tell me: is the compound O=C(O)COc1ccc(Cl)cc1C1c2scnc2CCN1C(=O)OCc1nc2ccccc2o1 (racemic) at or over 8 in terms of pIC50?
Reply: Y

* * *

Header: IC50 / hCRTH2 receptor (Homo sapiens (Human)) / multiple publications
Give bare numbers, in nM.

- O=C(O)Cc1cc2c(c(-c3ccc(F)c4c3CN(C(=O)OCc3ccccc3)CC4)c1)OCO2: 15.4
- COc1ccc(CC(=O)O)cc1-c1ccc(F)c2c1CN(C(=O)Cc1n[nH]c3ccccc13)CC2: 10.5
- Cc1nc2c(s1)C(c1cc(Cl)ccc1OCC(=O)O)N(C(=O)OCc1ccccc1)CC2 (racemic): 6.2
- CC(C)CC(=O)N(Cc1ccc2c(c1)OCCO2)c1cc(-c2nnn[nH]2)ccc1F: 7.1
- CC(C)Oc1cc(CC(=O)O)ccc1-c1ccc(F)c2c1CN(C(=O)C[C@H](C)c1ccccc1)CC2: 10.3

Let us move to another entry and its IC50.
"CCOc1ccc(CC(=O)O)cc1-c1ccc(F)c2c1CN(C(=O)OCC1CCCC1)CC2" has a reported IC50 of 8.7

* * *

Collected IC50 for hCRTH2 receptor (Homo sapiens (Human), UniProt Q9Y5Y4) across several studies; compounds listed below.

I'm hoping you can list IC50 for every compound here, please.
1. C[C@@H]1[C@H](c2ccccc2)OC(=O)N1Cc1cc(C(F)(F)F)ccc1Oc1cc(CC(=O)O)ccc1O
2. CCN(Cc1cc(C(F)(F)F)ccc1-c1cc(CC(=O)O)ccc1-c1ccccc1)C(=O)OCc1ccccc1
3. C[C@@H]1[C@H](c2ccccc2)OC(=O)N1Cc1cc(Br)ccc1Oc1cc(F)cc(CC(=O)O)c1

Reply:
1: < 300 nM; 2: < 300 nM; 3: < 300 nM

Value sought for every listed compound: IC50.
1. O=C(O)Cc1cccc(Oc2ccc(Br)cc2CN2CCCC2=O)c1
2. O=C(O)Cc1ccc(Oc2cc3c(cc2NS(=O)(=O)c2ccc(Cl)cc2)C(=O)NC3=O)c(Cl)c1

Reply:
> 1000 nM
100 to 1000 nM

* * *

pIC50 values for hCRTH2 receptor (Homo sapiens (Human), UniProt Q9Y5Y4), compiled from several publications.
Answers are plain numbers, as −log10 of the molar value.

* CCOc1ccc(CC(=O)O)cc1-c1ccc(F)c2c1CN(C(=O)NCc1ccccc1F)CC2 | 8.28
* COc1ccc(CC(=O)O)cc1-c1ccc(F)c2c1CN(C(=O)CCc1cn(C)c3ccccc13)CC2 | 8.32
* CNS(=O)(=O)c1ccc(-c2cc(C(F)(F)F)ccc2OCC(=O)O)cc1 | 8.20
* COc1ccc(CC(=O)O)cc1-c1ccc(F)c2c1CN(C(=O)[C@@H]1C[C@H]1c1cccc(Cl)c1)CC2 (racemic) | 8.27
* O=C(O)COc1ccc(Cl)cc1[C@@H]1c2scnc2CCN1C(=O)[C@@H]1C[C@H]1c1ccc(F)cc1 | 8.30

pIC50 recorded for this compound, "C[C@@H](CC(=O)N1CCc2c(F)ccc(-c3ccc(CC(=O)O)cc3OCC(F)(F)F)c2C1)c1ccccc1" , is 8.09

* * *

The entries that follow carry pIC50 values tested on hCRTH2 receptor (Homo sapiens (Human)), drawn from several published reports.
Sequence (Q9Y5Y4 whole entry): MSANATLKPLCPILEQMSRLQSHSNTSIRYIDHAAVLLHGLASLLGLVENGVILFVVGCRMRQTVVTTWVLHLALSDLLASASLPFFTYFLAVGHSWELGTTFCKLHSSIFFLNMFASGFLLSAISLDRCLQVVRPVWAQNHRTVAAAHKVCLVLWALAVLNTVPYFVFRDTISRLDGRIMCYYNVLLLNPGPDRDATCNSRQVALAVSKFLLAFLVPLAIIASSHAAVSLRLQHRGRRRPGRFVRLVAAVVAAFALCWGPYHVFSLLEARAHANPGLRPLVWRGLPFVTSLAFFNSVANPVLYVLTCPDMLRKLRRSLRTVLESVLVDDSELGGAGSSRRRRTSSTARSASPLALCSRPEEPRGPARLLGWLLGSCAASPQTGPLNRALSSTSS
pIC50: −log10 of the molar value.

* CCN(Cc1cc(C(F)(F)F)ccc1-c1cc(CC(=O)O)ccc1OC)S(=O)(=O)c1ccc(Cl)cc1 | > 6.52

For each listed entry, give its pIC50.
1. CCCN/C(=N\C#N)N(CC)Cc1cc(C(F)(F)F)ccc1-c1cc(CC(=O)O)ccc1OC
2. COc1ccc(CC(=O)O)cc1-c1ccc(C(F)(F)F)cc1CN(CCc1ccccc1)S(C)(=O)=O
3. CCN(Cc1cc(-c2ccc3ncccc3c2)ccc1-c1cc(CC(=O)O)ccc1OC)C(=O)COc1ccc(Cl)cc1
4. O=C(O)COc1ccc(Cl)cc1C1c2scnc2CCN1C(=O)NCc1ccccc1Cl (racemic)
5. C[C@H]1[C@@H](c2ccccc2)OC(=O)N1Cc1cc(-c2ccc(C(N)=O)cn2)ccc1Oc1cccc(CC(=O)O)c1

Reply:
1: > 6.52; 2: 4.52 to 6.00; 3: > 6.52; 4: 8.05; 5: 6.00 to 6.52

* * *

pIC50: −log10 of the molar value.
Field pIC50: reported value for hCRTH2 receptor (Homo sapiens (Human), UniProt Q9Y5Y4); entries drawn from several documents.

Recorded pIC50, per entry:
• COc1ccc(CC(=O)O)cc1Oc1ccc(Br)cc1CN1C(=O)O[C@@H](c2cc(F)cc(F)c2)[C@H]1C = > 6.52
• O=C(O)COc1ccc(Cl)cc1C1c2scnc2CCN1C(=O)NCc1ccc(F)cc1 (racemic) = 6.91
• CCN(Cc1cc(NS(=O)(=O)c2ccc(Cl)cc2)ccc1-c1cc(CC(=O)O)ccc1OC)C(=O)OCc1ccccc1 = > 6.52
• C[C@H]1[C@@H](c2ccccc2)OC(=O)N1Cc1cc(-c2cnn(C)c2)ccc1Oc1cccc(CC(=O)O)c1 = > 6.52
• COc1ccc(CC(=O)O)cc1Oc1ccc(-c2cccnc2)cc1CN1C(=O)O[C@H](c2ccccc2)[C@@H]1C = > 6.52

# input for lookup
Record for "CCN(Cc1cc(C(F)(F)F)ccc1-c1cc(F)cc(CC(=O)O)c1)C(=O)NCc1ccccc1" under target or system hCRTH2 receptor (Homo sapiens (Human), UniProt Q9Y5Y4): pIC50 reported as > 6.52

* * *

Endpoint summary: pIC50, system: hCRTH2 receptor (Homo sapiens (Human)), multiple sources combined.
pIC50: −log10 of the molar value.
Assign yes (1) whenever pIC50 does not fall below 8; assign no (0) whenever it does.

• COc1ccc(CC(=O)O)cc1-c1ccc(F)c2c1CN(C(=O)OC(C)C)CC2 = no (0)
• CC(C)CCOC(=O)N1CCc2ncsc2[C@H]1c1cc(Cl)ccc1OCC(=O)O = yes (1)
• CCN(Cc1cc(C(F)(F)F)ccc1-c1cc([C@@H](C)C(=O)N2C(=O)O[C@@H](c3ccccc3)[C@H]2C)ccc1OC)C(=O)C1CC1 = no (0)
• C#CCCOC(=O)N1CCc2c(F)ccc(-c3cc(CC(=O)O)ccc3OCC)c2C1 = no (0)

Turning now to a further record.
Ask: Please check the record "CCOc1ccc(CC(=O)O)cc1-c1ccc(F)c2c1CN(C(=O)NCCc1ccccc1)CC2" and state if its pIC50 is at or above 8.
Reply: yes (1)

* * *

Here, molecules appear alongside IC50 reported for hCRTH2 receptor (Homo sapiens (Human)) in the literature.
Give bare numbers, in nM.

- CCOc1ccc(CC(=O)O)cc1-c1ccc(F)c2c1CN(C(=O)C(C)Cc1ccccn1)CC2 (racemic): 3.1

Hi team, please reply with IC50 for each item in this list.
1. CCOc1ccc(CC(=O)O)cc1-c1ccc(F)c2c1CN(C(=O)CC(C)c1ccccn1)CC2 (racemic)
2. O=C(O)Cn1cc(CCNS(=O)(=O)c2ccc(F)cc2)c2cc(Cl)ccc21
3. CCC(=O)N(Cc1cccc(C#CC(C)(C)C)c1)c1cccc(-c2nnn[nH]2)c1

Reply:
1. 4.8
2. 18
3. 1300

Below are some molecules; for each one, tell me its IC50.
1. CCC(=O)N(Cc1cccc(-c2sc(C)nc2C)c1)c1cccc(-c2nnn[nH]2)c1
2. CCC(=O)N(Cc1cccc(OC)c1)c1cccc(-c2nnn[nH]2)c1
3. CCC(=O)N(Cc1ccc(S(C)(=O)=O)cc1)c1cccc(-c2nnn[nH]2)c1
4. O=C(O)COc1ccc(Cl)cc1[C@@H]1c2scnc2CCN1C(=O)[C@@H]1C[C@H]1c1cccc(F)c1
5. COc1ccc(CC(=O)O)cc1-c1ccc(F)c2c1CN(C(=O)CC(C)(C)c1ccccc1)CC2
6. CCOc1ccc(CC(=O)O)cc1-c1ccc(F)c2c1CN(C(=O)CC(C)(C)c1ccc(F)cc1)CC2
7. O=C(O)COc1ccc(Cl)cc1[C@@H]1c2scnc2CCN1C(=O)OCc1ccccc1F

Reply:
235
444
75
2.8
10.1
15
0.6

Batch request: IC50 per item, same order as input.
1. COc1ccc(CC(=O)O)cc1-c1ccc(F)c2c1CN(C(=O)C[C@@H](C)c1ccccc1)CC2
2. COc1ccc(CC(=O)O)cc1-c1c(F)ccc2c1CN(C(=O)[C@@H]1C[C@H]1c1ccccc1)CC2
3. CCC(=O)N(Cc1cccc(-c2cn[nH]c2)c1)c1cc(F)cc(-c2nnn[nH]2)c1
4. O=C(O)COc1ccc(Cl)cc1C1c2sc(-c3ccccc3)nc2CCN1C(=O)OCc1ccccc1 (racemic)

Reply:
10.4
3.19
19
30.9
